# ASSAY_TARGET: rat MCH-1R (Rattus norvegicus)
# Sequence (P97639 whole entry): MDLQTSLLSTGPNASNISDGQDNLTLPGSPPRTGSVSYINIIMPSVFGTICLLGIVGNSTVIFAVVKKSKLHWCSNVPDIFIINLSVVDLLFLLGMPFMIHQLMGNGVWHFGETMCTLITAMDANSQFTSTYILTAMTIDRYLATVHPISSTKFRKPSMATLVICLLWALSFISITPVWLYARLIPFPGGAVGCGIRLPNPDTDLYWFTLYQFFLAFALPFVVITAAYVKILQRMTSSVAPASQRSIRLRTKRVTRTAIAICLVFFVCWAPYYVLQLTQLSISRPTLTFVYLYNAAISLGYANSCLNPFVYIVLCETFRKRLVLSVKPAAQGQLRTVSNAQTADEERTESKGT
# EXPERIMENT_NOTES: Aequorin bioluminescence functional assay, MCH-1R agonist activity
# ASSAY_CONTEXT: 293-AEQ17 cells expressing rat MCH-1R
Where a SMILES comes first, the peptide text is derived from it. Bridges are numbered along the chain shown (N, C = ends). [ ]: non-standard residue; d: D form. The star is where a group is joined. Pentanoyl(5-guanidino) = NC(N)=NCCCCC(=O)*; Abu = CC[C@H](N)C(=O)O; Ava = NCCCCC(=O)O; βAla = NCCC(=O)O
RESULT_TYPE: MCH-1R Agonist Activation % (%)
Write the number in % without appending the unit.

INSERT INTO measurements (compound, reported_value) VALUES
  ('CC[C@@H]1NC(=O)[C@@H](NC(=O)CCCCNC(=N)N)CSSC[C@@H](C(N)=O)NC(=O)CCCCNC(=O)CCCCNC(=O)[C@H](Cc2ccc(O)cc2)NC(=O)[C@H](C(C)C)NC(=O)[C@H](CCCNC(=N)N)NC(=O)CNC(=O)[C@H](CC(C)C)NC1=O [SEQ. ID. NO. 17] ({Pentanoyl(5-guanidino)}-C[Abu]LGRVY[Ava][Ava]C-NH2; disulfide 1-10; C-terminus assumed)', 3);

Here's the next entry for you.
query: State the recorded MCH-1R Agonist Activation % for this entry: CSCC[C@@H]1NC(=O)[C@@H](NC(=O)[C@H](CCCNC(=N)N)NC(C)=O)CSSC[C@@H](C(N)=O)NC(=O)CCNC(=O)CCNC(=O)[C@H](Cc2ccc(O)cc2)NC(=O)[C@H](C(C)C)NC(=O)[C@H](CCCNC(=N)N)NC(=O)CCNC(=O)CCNC1=O [SEQ. ID. NO. 31] (Ac-RCM[βAla][βAla]RVY[βAla][βAla]C-NH2; disulfide 2-11)
result: 3

* * *

# ASSAY_TARGET: human MCH-2R (Homo sapiens, UniProt Q969V1)
# Sequence (Q969V1 whole entry): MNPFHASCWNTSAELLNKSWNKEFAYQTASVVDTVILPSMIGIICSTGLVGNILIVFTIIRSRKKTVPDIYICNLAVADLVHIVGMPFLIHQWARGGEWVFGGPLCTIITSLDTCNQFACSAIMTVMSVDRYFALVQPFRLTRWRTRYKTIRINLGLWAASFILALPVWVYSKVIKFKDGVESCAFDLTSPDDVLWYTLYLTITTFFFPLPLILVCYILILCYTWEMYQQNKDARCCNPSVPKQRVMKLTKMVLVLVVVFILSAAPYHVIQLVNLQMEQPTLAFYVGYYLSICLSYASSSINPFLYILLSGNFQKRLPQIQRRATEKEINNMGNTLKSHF
# EXPERIMENT_NOTES: Aequorin bioluminescence functional assay, MCH-2R agonist activity
# ASSAY_CONTEXT: 293-AEQ17 cells expressing human MCH-2R
Where a SMILES comes first, the peptide text is derived from it. Bridges are numbered along the chain shown (N, C = ends). [ ]: non-standard residue; d: D form. The star is where a group is joined. Pentanoyl(5-guanidino) = NC(N)=NCCCCC(=O)*; Nle = CCCC[C@H](N)C(=O)O; Ava = NCCCCC(=O)O; βAla = NCCC(=O)O
RESULT_TYPE: MCH-2R Agonist Activation % (%)
# unit: % | format: bare number

INSERT INTO measurements (molecule, result_type, reported_value) VALUES
  ('CSCC[C@@H]1NC(=O)[C@@H](NC(=O)[C@H](CCCNC(=N)N)NC(C)=O)CSSC[C@@H](C(N)=O)NC(=O)CCCCNC(=O)CCCCNC(=O)[C@H](Cc2ccc(O)cc2)NC(=O)[C@H](C(C)C)NC(=O)[C@H](CCCNC(=N)N)NC(=O)[C@H]2CCCN2C(=O)[C@H](CC(C)C)NC1=O [SEQ. ID. NO. 28] (Ac-RCML[dP]RVY[Ava][Ava]C-NH2; disulfide 2-11 (inferred); C-terminus assumed)', 'MCH-2R Agonist Activation %', 7),
  ('CC(=O)N[C@@H](CCCNC(=N)N)C(=O)N[C@H]1CSSC[C@@H](C(N)=O)NC(=O)CCCCNC(=O)CCCCNC(=O)[C@H](Cc2ccc(O)cc2)NC(=O)[C@H](C(C)C)NC(=O)[C@H](CCCNC(=N)N)NC(=O)CNC(=O)[C@H](CC(C)C)NC(=O)[C@H](C)NC1=O [SEQ. ID. NO. 22] (Ac-RCALGRVY[Ava][Ava]C-NH2; disulfide 2-11; C-terminus assumed)', 'MCH-2R Agonist Activation %', 25),
  ('CSCC[C@@H]1NC(=O)[C@@H](NC(=O)[C@H](CCCNC(=N)N)NC(C)=O)CSSC[C@@H](C(N)=O)NC(=O)CCNC(=O)CCNC(=O)[C@H](Cc2ccc(O)cc2)NC(=O)[C@H](C(C)C)NC(=O)[C@H](CCCNC(=N)N)NC(=O)CCNC(=O)CCNC1=O [SEQ. ID. NO. 31] (Ac-RCM[βAla][βAla]RVY[βAla][βAla]C-NH2; disulfide 2-11)', 'MCH-2R Agonist Activation %', 6),
  ('CCCC[C@@H]1NC(=O)[C@@H](NC(=O)CCCCNC(=N)N)CSSC[C@@H](C(=O)O)NC(=O)CCCCNC(=O)CCCCNC(=O)[C@H](Cc2ccc(O)cc2)NC(=O)[C@H](C)NC(=O)[C@H](CCCNC(=N)N)NC(=O)CCCCNC(=O)CCCCNC1=O [SEQ. ID. NO. 35] ({Pentanoyl(5-guanidino)}-C[Nle][Ava][Ava]RAY[Ava][Ava]C-OH; disulfide 1-10)', 'MCH-2R Agonist Activation %', 25),
  ('CSCC[C@@H]1NC(=O)[C@H](NC(=O)CCCCNC(=N)N)CSSC[C@@H](C(N)=O)NC(=O)CCCCNC(=O)CCCCNC(=O)[C@H](Cc2ccc(O)cc2)NC(=O)[C@H](C(C)C)NC(=O)[C@H](CCCNC(=N)N)NC(=O)CNC(=O)[C@H](CC(C)C)NC1=O [SEQ. ID. NO. 25]', 'MCH-2R Agonist Activation %', 25);

Would you kindly look at the next entry?
query: Look up MCH-2R Agonist Activation % for this molecule: CSCC[C@@H]1NC(=O)[C@@H](NC(=O)CCCCNC(=N)N)CSSC[C@@H](C(N)=O)NC(=O)CNC(=O)[C@H](Cc2ccc(O)cc2)NC(=O)[C@H](C(C)C)NC(=O)[C@H](CCCNC(=N)N)NC(=O)CCCCNC(=O)CCCCNC1=O [SEQ. ID. NO. 6] ({Pentanoyl(5-guanidino)}-CM[Ava][Ava]RVYGC-NH2; disulfide 1-9)
result: 25

* * *

# ASSAY_TARGET: human MCH-1R (Homo sapiens)
# Sequence (Q99705 whole entry): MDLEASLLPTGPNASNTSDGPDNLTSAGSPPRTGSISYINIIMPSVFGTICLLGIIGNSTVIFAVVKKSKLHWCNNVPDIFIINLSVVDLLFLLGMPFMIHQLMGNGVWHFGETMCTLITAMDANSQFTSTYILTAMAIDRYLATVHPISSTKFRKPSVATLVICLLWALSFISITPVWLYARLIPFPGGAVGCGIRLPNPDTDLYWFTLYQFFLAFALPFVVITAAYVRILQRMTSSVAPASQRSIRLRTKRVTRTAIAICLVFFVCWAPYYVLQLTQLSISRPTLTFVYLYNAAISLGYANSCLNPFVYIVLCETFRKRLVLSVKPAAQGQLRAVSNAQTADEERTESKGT
# EXPERIMENT_NOTES: MCH-1R binding assay, inhibition of [125I]-human MCH binding to membranes
Where a SMILES comes first, the peptide text is derived from it. Bridges are numbered along the chain shown (N, C = ends). [ ]: non-standard residue; d: D form. The star is where a group is joined. Pentanoyl(5-guanidino) = NC(N)=NCCCCC(=O)*; Ava = NCCCCC(=O)O
The entries below come with measured pIC50 values attached.
Worth noting: pIC50 values are minus log10 of concentrations stated in mol/L.

INSERT INTO assay_data (molecule, result_type, reported_value) VALUES
  ('CSCC[C@@H]1NC(=O)[C@@H](NC(=O)[C@H](CCCNC(=N)N)NC(C)=O)CSSC[C@@H](C(N)=O)NC(=O)CCCCNC(=O)CCCCNC(=O)[C@H](Cc2ccc(O)cc2)NC(=O)[C@H](C(C)C)NC(=O)[C@H](CCCNC(=N)N)NC(=O)CNC(=O)[C@H](CC(C)C)NC1=O [SEQ. ID. NO. 8] (Ac-RCMLGRVY[Ava][Ava]C-NH2; disulfide 2-11; C-terminus assumed)', 'pIC50', 8.18),
  ('CSCC[C@@H]1NC(=O)[C@@H](NC(=O)CCCCNC(=N)N)CSSC[C@@H](C(N)=O)NC(=O)CCNC(=O)CCNC(=O)[C@H](Cc2ccc(O)cc2)NC(=O)[C@H](C(C)C)NC(=O)[C@H](CCCNC(=N)N)NC(=O)CNC(=O)[C@H](CC(C)C)NC1=O', 'pIC50', 6.75);

Let's switch to this molecule now.
query: Provide value of pIC50 for this record tested with human MCH-1R (Homo sapiens): CSCC[C@@H]1NC(=O)[C@@H](NC(=O)CCCCNC(=N)N)CSSC[C@@H](C(N)=O)NC(=O)[C@@H]2CCCN2C(=O)[C@H](CCCNC(=N)N)NC(=O)[C@H](Cc2ccc(O)cc2)NC(=O)[C@H](C(C)C)NC(=O)[C@H](CCCNC(=N)N)NC(=O)CCCCNC(=O)CCCCNC1=O [SEQ. ID. NO. 5] ({Pentanoyl(5-guanidino)}-CM[Ava][Ava]RVYRPC-NH2; disulfide 1-10 (inferred); C-terminus assumed)
result: 8.20

* * *

# ASSAY_TARGET: human MCH-2R (Homo sapiens, UniProt Q969V1)
# EXPERIMENT_NOTES: Aequorin bioluminescence functional assay, MCH-2R agonist activity
pEC50: −log10 of the molar value. Where a SMILES comes first, the peptide text is derived from it. Bridges are numbered along the chain shown (N, C = ends). [ ]: non-standard residue; d: D form. The star is where a group is joined. Pentanoyl(5-guanidino) = NC(N)=NCCCCC(=O)*; Ava = NCCCCC(=O)O
RESULT_TYPE: pEC50

INSERT INTO results (molecule, reported_value) VALUES
  ('CSCC[C@@H]1NC(=O)[C@@H](NC(=O)CCCCNC(=N)N)CSSC[C@@H](C(N)=O)NC(=O)CCCCNC(=O)CCCCNC(=O)[C@H](Cc2ccc(O)cc2)NC(=O)[C@H](C(C)C)NC(=O)[C@H](CCCNC(=N)N)NC(=O)CNC1=O [SEQ. ID. NO. 23] ({Pentanoyl(5-guanidino)}-CMGRVY[Ava][Ava]C-NH2; disulfide 1-9)', '< 5.00');

query: Quick one: pEC50 of CSCC[C@@H]1NC(=O)[C@@H](NC(=O)[C@H](CCCNC(=N)N)NC(C)=O)CSSC[C@@H](C(N)=O)NC(=O)CCCCNC(=O)CCCCNC(=O)[C@H](Cc2ccc(O)cc2)NC(=O)[C@H](C(C)C)NC(=O)[C@H](CCCNC(=N)N)NC(=O)CNC(=O)[C@H](CC(C)C)NC1=O [SEQ. ID. NO. 8] (Ac-RCMLGRVY[Ava][Ava]C-NH2; disulfide 2-11; C-terminus assumed) ?
result: < 5.00

query: I am curious: what pEC50 value has been reported for CC(C)[C@@H]1NC(=O)[C@H](CCCNC(=N)N)NC(=O)CCCCNC(=O)CCCCNC(=O)CCCCNC(=O)[C@@H](NC(=O)CCCCNC(=N)N)CSSC[C@@H](C(N)=O)NC(=O)CCCCNC(=O)CCCCNC(=O)[C@H](Cc2ccc(O)cc2)NC1=O ?
result: < 5.00
